ASSAYED_SYSTEM: AurA (Homo sapiens, UniProt O14965)
Construct: purchased Carna Biosciences
Sequence (O14965 whole entry): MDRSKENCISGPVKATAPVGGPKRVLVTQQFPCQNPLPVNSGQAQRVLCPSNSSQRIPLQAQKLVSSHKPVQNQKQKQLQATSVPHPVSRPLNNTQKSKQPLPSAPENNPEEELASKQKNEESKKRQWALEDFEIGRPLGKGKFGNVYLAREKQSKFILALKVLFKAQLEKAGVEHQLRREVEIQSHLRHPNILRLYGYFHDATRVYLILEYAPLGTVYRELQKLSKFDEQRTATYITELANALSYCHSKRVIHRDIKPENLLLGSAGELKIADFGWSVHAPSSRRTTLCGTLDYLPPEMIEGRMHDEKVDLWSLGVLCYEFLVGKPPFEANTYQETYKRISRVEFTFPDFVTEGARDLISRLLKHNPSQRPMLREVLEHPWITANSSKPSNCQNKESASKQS
PROCEDURE_DETAILS: LabChip (Caliper) kinase assay, AurA
Type: biochemical
EXPERIMENTAL_CONTEXT: ATP at Km, read-out: CI50 (the source's name)
Provide the reported IC50 of each item.
Give bare numbers, in nM.

C[C@]12O[C@H](C[C@@H](O)[C@H]1O)n1c3ccccc3c3c4c(c5c6ccccc6n2c5c31)C(=O)NC4=O    6.7

# next compound below
Fill in: IC50 of C[C@]12O[C@H](C[C@H](O)[C@H]1O)n1c3ccccc3c3c4c(c5c6ccccc6n2c5c31)CNC4=O [formula (XVII), N^12-5′(S)-N^13-1′-(R)-L-olivosyl-k252c] is ___
5

###

Provide the reported inhibition at 0.01 µM of each item.
ASSAYED_SYSTEM: FGFR3 (Homo sapiens)
Sequence (P22607 23-806, species assumed): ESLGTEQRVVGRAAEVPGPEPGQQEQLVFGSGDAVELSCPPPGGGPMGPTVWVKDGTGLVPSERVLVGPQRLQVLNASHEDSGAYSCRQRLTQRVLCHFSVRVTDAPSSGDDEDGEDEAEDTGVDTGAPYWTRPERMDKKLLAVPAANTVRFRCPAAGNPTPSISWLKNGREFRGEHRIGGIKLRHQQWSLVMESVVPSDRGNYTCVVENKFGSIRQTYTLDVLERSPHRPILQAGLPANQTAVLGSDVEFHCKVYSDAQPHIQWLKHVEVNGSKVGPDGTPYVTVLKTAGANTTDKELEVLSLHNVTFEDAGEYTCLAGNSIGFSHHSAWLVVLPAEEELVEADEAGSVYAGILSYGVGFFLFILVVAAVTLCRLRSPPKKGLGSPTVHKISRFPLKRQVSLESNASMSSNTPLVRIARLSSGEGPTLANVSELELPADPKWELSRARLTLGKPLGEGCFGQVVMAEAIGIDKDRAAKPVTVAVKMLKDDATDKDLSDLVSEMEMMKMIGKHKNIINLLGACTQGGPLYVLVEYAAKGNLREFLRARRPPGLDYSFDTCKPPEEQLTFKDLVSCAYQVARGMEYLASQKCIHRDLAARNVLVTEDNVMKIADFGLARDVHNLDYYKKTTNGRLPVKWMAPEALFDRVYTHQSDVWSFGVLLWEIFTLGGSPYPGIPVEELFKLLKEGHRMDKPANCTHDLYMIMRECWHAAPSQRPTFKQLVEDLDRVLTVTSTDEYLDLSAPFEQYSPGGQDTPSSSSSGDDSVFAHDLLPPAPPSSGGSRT
PROCEDURE_DETAILS: LabChip (Caliper) kinase assay, FGFR3
Assay type: biochemical
EXPERIMENTAL_CONTEXT: compound at 10 nM, read-out: remaining kinase activity (in %) / percentage of inhibition
Give bare numbers, in %.

C[C@@H]1O[C@@H](n2c3ccccc3c3c4c(c5c6ccccc6[nH]c5c32)CNC4=O)C[C@@H](O)[C@H]1O [formula (XIV), N^13-1′-β-L-digitoxosyl-k252c]    -6

Return reported inhibition at 0.01 µM values for all items listed beneath this line.
1. C[C@H]1O[C@@H](n2c3ccccc3c3c4c(c5c6ccccc6[nH]c5c32)C(=O)NC4=O)C[C@@H](O)[C@@H]1O
2. C[C@@H]1O[C@@H](n2c3ccccc3c3c4c(c5c6ccccc6[nH]c5c32)C(=O)NC4=O)[C@H](O)[C@H](O)[C@H]1O
3. C[C@@H]1O[C@@H](n2c3ccccc3c3c4c(c5c6ccccc6[nH]c5c32)CNC4=O)C[C@H](O)[C@H]1O [formula (XIII), N^13-1′-β-L-olivosyl-k252c]
4. C[C@H]1O[C@@H](n2c3ccccc3c3c4c(c5c6ccccc6[nH]c5c32)CNC4=O)C[C@@H](O)[C@@H]1O [formula (XV), N^13-1′-β-D-olivosyl-k252c]

-8
-10
-4
-20

###

Provide the reported inhibition at 0.1 µM of each item.
ASSAYED_SYSTEM: PDK1 (Homo sapiens)
Sequence (O15530 1-556): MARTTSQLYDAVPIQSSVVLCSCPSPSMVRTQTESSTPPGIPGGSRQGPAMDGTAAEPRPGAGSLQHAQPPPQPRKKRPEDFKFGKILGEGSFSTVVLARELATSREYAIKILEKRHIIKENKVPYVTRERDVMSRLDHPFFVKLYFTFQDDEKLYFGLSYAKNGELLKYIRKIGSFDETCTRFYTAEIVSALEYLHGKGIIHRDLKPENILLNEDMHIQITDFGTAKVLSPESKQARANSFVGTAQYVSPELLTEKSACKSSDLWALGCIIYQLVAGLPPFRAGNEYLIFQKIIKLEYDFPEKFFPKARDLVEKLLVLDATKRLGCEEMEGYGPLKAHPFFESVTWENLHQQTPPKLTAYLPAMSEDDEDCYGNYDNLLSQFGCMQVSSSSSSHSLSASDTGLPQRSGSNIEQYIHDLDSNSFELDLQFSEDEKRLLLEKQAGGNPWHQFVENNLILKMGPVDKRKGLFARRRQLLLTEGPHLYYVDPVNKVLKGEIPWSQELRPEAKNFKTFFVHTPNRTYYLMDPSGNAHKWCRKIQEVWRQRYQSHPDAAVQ
PROCEDURE_DETAILS: LabChip (Caliper) kinase assay, PDK1
Type: biochemical
EXPERIMENTAL_CONTEXT: compound at 100 nM, read-out: remaining kinase activity (in %) / percentage of inhibition
Numbers only, in %.

Return reported inhibition at 0.1 µM values for all items listed beneath this line.
1. C[C@@H]1O[C@@H](n2c3ccccc3c3c4c(c5c6ccccc6[nH]c5c32)C(=O)NC4=O)C[C@H](O)[C@H]1O [formula (IV), N^13-1′-β-L-olivosylarcyriaflavin]
2. C[C@H]1O[C@@H](n2c3ccccc3c3c4c(c5c6ccccc6[nH]c5c32)C(=O)NC4=O)C[C@@H](O)[C@@H]1O [formula (VI), N^13-1′-β-D-olivosylarcyriaflavin]
3. C[C@@H]1O[C@@H](n2c3ccccc3c3c4c(c5c6ccccc6[nH]c5c32)CNC4=O)C[C@@H](O)[C@H]1O [formula (XIV), N^13-1′-β-L-digitoxosyl-k252c]

1. 71
2. 76
3. 94

Return reported inhibition at 0.1 µM values for all items listed beneath this line.
1. C[C@@H]1O[C@@H](n2c3ccccc3c3c4c(c5c6ccccc6[nH]c5c32)C(=O)NC4=O)[C@H](O)[C@H](O)[C@H]1O [formula (III), N^13-1′-β-L-rhamnosylarcyriaflavin]
2. C[C@@H]1O[C@@H](n2c3ccccc3c3c4c(c5c6ccccc6[nH]c5c32)CNC4=O)C[C@H](O)[C@H]1O [formula (XIII), N^13-1′-β-L-olivosyl-k252c]
3. C[C@@H]1O[C@@H](n2c3ccccc3c3c4c(c5c6ccccc6[nH]c5c32)C(=O)NC4=O)C[C@@H](O)[C@H]1O [formula (V), N^13-1′-β-L-digitoxosylarcyriaflavin]

1: 46; 2: 81; 3: 97

Return reported inhibition at 0.1 µM values for all items listed beneath this line.
1. C[C@H]1O[C@@H](n2c3ccccc3c3c4c(c5c6ccccc6[nH]c5c32)CNC4=O)C[C@@H](O)[C@@H]1O [formula (XV), N^13-1′-β-D-olivosyl-k252c]
2. C[C@@H]1O[C@@H](n2c3ccccc3c3c4c(c5c6ccccc6[nH]c5c32)CNC4=O)[C@H](O)[C@H](O)[C@H]1O [formula (XII), N^13-1′-β-L-rhamnosyl-k252c]

[81, 15]
